# Test system: Saccharomyces cerevisiae lifespan shortening, growth inhibition
# Assay details: yeast lifespan shortening compounds, dose response (AID 849);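 further: yeast growth read as optical density after two days at 30 degrees C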
The source made the active and inactive calls. How the calls were made is not given here.
Choose one outcome from this list and give only that: active, inactive

Some solved cases for reference:
O=C(N/N=C\c1cccc([N+](=O)[O-])c1O)C1COc2ccccc2O1 (configuration not stated); active
c1cncc(-c2nnc(-c3cccnc3)nn2)c1; active
Clc1ccc2[nH]c3c(c2c1)CCc1cn[nH]c1-3; active
CN1CCc2cc3c(c4c2[C@H]1[C@H](O)c1ccccc1-4)OCO3; active
Cc1ccc(/C(N)=N/OC(=O)c2ccc(C)cc2Cl)cc1; active

Qu. Hey, what did the test say about Cc1ccc(COc2ccc(Br)cc2/C=N/O)cc1 ?
Ans. inactive

Qu. Dear colleague, could you share the recorded outcome for N/C(Cc1ccc(Cl)cc1)=N\OC(=O)c1ccccc1 when you have a moment?
Ans. active

Qu. Could you please tell me the result logged for O=C(CSC1=NCCS1)N1CCN(c2ccc(Cl)cc2)CC1 in this assay?
Ans. inactive

Qu. How was COc1ccc(C(=O)/C=C/N2CCCCC2)cc1OC classified in this test?
Ans. active

Qu. What call does the record list for COc1ccc(NCc2nc3ccccc3n2CCOc2ccc(C)cc2)cc1 ?
Ans. active
